The measured values listed here are drawn from PubChem BioAssay (NCATS).

test: Cell Viability - LYMP2-019 (AID 973); details: LYMP2-019 lymphoblastoid cell line viability; series mostly up to 92.2 µM;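 also: cells exposed to compound for 24 h at 37 °C; 0% = DMSO alone and full effect = 92 µM tetraoctylammonium bromide; nearly all actives have a fitted effect of over 55% in size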
Records with an inconclusive call do not appear. Active and inactive are the calls of the source. Calls follow the shape of the dose curve; as a rule, active = well fitted cell-killing curve with a large enough effect; inconclusive = small, poorly fitted or top-dose-only effect; inactive = flat fitted curve, though single readings scatter.

# MOLECULE, outcome
rows = [
    ("CN(C)CCC(c1ccc(Cl)cc1)c1ccccn1 (stereo not drawn)", "inactive"),
    ("Nc1ccc([N+](=O)[O-])cc1O", "inactive"),
    ("CCCCCCCCCCCCCCCCCC(=O)O", "inactive"),
]

---

target: Galactokinase (Homo sapiens) (UniProt P51570); test: qHTS Validation Assay for Inhibitors of Human Galactokinase (GALK) (AID 493189); details: purified human GALK enzyme activity, qHTS 7-point titration; series mostly up to 57.5 µM
Sequence (P51570 whole entry, looked up): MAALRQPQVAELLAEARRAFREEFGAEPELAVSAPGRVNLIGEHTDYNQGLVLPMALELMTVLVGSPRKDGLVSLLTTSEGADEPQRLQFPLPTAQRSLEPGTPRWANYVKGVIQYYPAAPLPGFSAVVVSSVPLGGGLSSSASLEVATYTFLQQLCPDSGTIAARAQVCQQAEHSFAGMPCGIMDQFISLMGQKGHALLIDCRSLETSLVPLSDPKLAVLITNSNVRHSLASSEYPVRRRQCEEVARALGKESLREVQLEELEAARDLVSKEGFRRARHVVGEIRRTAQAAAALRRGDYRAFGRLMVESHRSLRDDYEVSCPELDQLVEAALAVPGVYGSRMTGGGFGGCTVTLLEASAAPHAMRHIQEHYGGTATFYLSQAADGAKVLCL
Calls of active or inactive are those of the source. Calls follow the shape of the dose curve; as a rule, active = well fitted curve in the direction sought with a large enough effect; inconclusive = small, poorly fitted or top-dose-only effect, or another doubt; inactive = no such curve, though single readings can be large or run the other way.
Write down the outcome that applies. Available outcomes: TRUE = active, FALSE = inactive

Ask: Could you please tell me the result logged for CCCCCCCCCCCCCCCC(=O)NCC(COP(=O)([O-])OCC[N+](C)(C)C)OCC (stereo not drawn) in this assay?
Reply: FALSE

Ask: Please share the test call associated with O=C(O)CNC(=O)C(CS)Cc1ccccc1 (stereo not drawn) .
Reply: FALSE

Ask: Please state the recorded outcome for this compound: CN1[C@@H](CC(=O)c2ccccc2)CCC[C@H]1C[C@H](O)c1ccccc1
Reply: FALSE

Ask: How was Cc1ccccc1CNc1ncnc2c1ncn2C1OC(CO)C(O)C1O (stereo not drawn) classified in this test?
Reply: FALSE

Ask: Per the assay record, what outcome was assigned to COc1cc(C(O)CO)ccc1OS(=O)(=O)O (stereo not drawn) ?
Reply: FALSE

Ask: Test call, this compound: CC12C(=O)OC(=O)C1(C)C1CCC2O1 (stereo not drawn)
Reply: FALSE

Ask: Recorded call for O=C(O)c1cc(=O)c2ccccc2[nH]1 ?
Reply: FALSE

Ask: # fetch the recorded call for O=C1C(SCCO)=C(SCCO)C(=O)c2ccccc21 here
Reply: TRUE

---

tested on: CP237; test: qHTS profiling for inhibitors of Plasmodium falciparum proliferation (AID 504749);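 also: 0% = DMSO vehicle and full inhibition = artemisinin control; nearly all actives have a fitted effect of over 60% in size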; conditions: P. falciparum in erythrocytes, SYBR Green DNA, 72 h; series mostly up to 28.7 µM
Results filed as inconclusive are left out. The source made the active and inactive calls. The call rests on the fitted dose curve; in most records, active means well fitted inhibition curve with a large enough effect; inconclusive means small, poorly fitted or top-dose-only effect; inactive means flat fitted curve, though single readings scatter.
Answer with one of the outcomes active, inactive

# MOLECULE, CLASS LABEL
rows = [
    ("CCCCCC[C@@H](O)C/C=C\\CCCCCCCC(=O)O", "inactive"),
    ("C=CCN1C(=O)C(CC(C)C)NC1=S (stereo not drawn)", "inactive"),
    ("CCCOC(=O)c1ccc(O)cc1", "inactive"),
    ("COc1cc2c3cc1Oc1cc(ccc1O)C[C@@H]1c4c(cc(OC)c(O)c4Oc4ccc(cc4)C[C@@H]3N(C)CC2)CC[N+]1(C)C", "inactive"),
    ("Nc1c(CC(=O)O)cccc1C(=O)c1ccc(Br)cc1", "inactive"),
    ("CC1(C)C[C@@H]1C(=O)N/C(=C\\CCCCSC[C@H](N)C(=O)O)C(=O)O", "inactive"),
    ("C[S+](CC[C@H](N)C(=O)O)C[C@H]1O[C@@H](n2cnc3c(N)ncnc32)[C@H](O)[C@@H]1O (stereo partly drawn)", "inactive"),
    ("C=CC(N)CCC(=O)O (stereo not drawn)", "inactive"),
]

# ---- query molecule ----
Ask: Could you check what this test reported for CCCC(=O)OC[C@@H](OC(=O)CCC)[C@@H](OC(=O)CCC)[C@H](Cn1c2nc(=O)[nH]c(=O)c-2nc2cc(C)c(C)cc21)OC(=O)CCC ?
Reply: inactive

---

assay: NFAT Signaling Pathway (AID 444); conditions: Jurkat NFAT-bla M1, carbachol, beta-lactamase ratio, 5 h; at 38 µM (top of the series) unless noted;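 also: carbachol stimulus at about its EC50 of 1 µM final; % is scaled to controls: 0 for no effect and ±100 for the full control effect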
Results filed as inconclusive are left out. Active and inactive are the calls of the source. The call rests on the fitted dose curve; in most records, active means well fitted curve in either direction with a large enough effect (not every such curve was filed as active); inconclusive means small, poorly fitted or top-dose-only effect, or another doubt; inactive means flat fitted curve, though single readings scatter.
Each entry below lists one item and its recorded activity change, negative = inhibition value.

See these solved cases before continuing.
# STRUCTURE AS SMILES, activity change, negative = inhibition
data = [
    ("O=C(O)c1cc([N+](=O)[O-])ccc1NCCCc1ccccc1", "5.3% (inactive)"),
    ("OC[C@H]1O[C@@H](n2cnc3c(Nc4ccccc4)ncnc32)[C@H](O)[C@@H]1O", "4.47% [at 17.2 µM] (inactive)"),
    ("Cc1cc(NC(=O)Nc2ccc3c(ccn3C)c2)sn1", "10.3% (inactive)"),
]

Ask: Any idea what its activity change, negative = inhibition is? The compound is NC(=O)C(=O)O
Reply: 5.77% (inactive)

Ask: # input compound: Cc1c(Nc2ncccc2C(=O)O)cccc1C(F)(F)F ; wanted: its activity change, negative = inhibition
Reply: -13.1% [at 17.2 µM] (inactive)

Ask: Entry Cc1ccc(C(=O)c2ccc(CC(=O)O)n2C)cc1 : reported activity change, negative = inhibition = ?
Reply: -1.3% [at 17.2 µM] (inactive)

---

biological target: Muscarinic acetylcholine receptor M1 (Rattus norvegicus) (UniProt P08482); assay: qHTS Assay for Antagonists of Acetylcholine Muscarinic M1 Receptor: Measurement of IP-One Response (AID 944); details: CHO-M1 cells, IP-One HTRF, antagonist mode; series mostly up to 46.1 µM; also: nearly all actives have a fitted effect of over 75% in size
Sequence (P08482 whole entry, looked up): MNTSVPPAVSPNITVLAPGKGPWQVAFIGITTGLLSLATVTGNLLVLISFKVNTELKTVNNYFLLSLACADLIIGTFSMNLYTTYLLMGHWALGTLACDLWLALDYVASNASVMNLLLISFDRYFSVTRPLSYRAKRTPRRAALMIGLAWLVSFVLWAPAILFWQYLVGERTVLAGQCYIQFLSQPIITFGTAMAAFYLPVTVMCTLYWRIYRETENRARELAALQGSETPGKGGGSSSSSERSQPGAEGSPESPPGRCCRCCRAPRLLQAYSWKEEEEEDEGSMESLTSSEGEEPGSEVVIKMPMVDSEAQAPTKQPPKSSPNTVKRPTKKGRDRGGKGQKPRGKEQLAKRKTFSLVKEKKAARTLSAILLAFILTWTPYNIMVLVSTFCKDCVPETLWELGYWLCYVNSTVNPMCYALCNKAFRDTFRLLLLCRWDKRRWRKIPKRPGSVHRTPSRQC
Records with an inconclusive call do not appear. Activity calls are given as the source filed them. The call rests on the fitted dose curve; in most records, active means well fitted inhibition curve with a large enough effect; inconclusive means small, poorly fitted or top-dose-only effect; inactive means no such curve, though single readings can be large or run the other way.
Assign a class; possible classes are TRUE (active), FALSE (inactive)

Below are worked cases with known answers.
# STRUCTURE AS SMILES, CLASS LABEL
measured = [
    ("COc1ccc(/C=C/C(=O)Nc2ccccc2C(=O)O)cc1OC", "FALSE"),
    ("NO", "FALSE"),
    ("NC(=O)C(=O)O", "FALSE"),
    ("CN=c1nc(-c2ccccc2)n(-c2ccccc2)s1", "TRUE"),
    ("O=c1[nH]c2cc(C(F)(F)F)ccc2n1-c1cc(C(F)(F)F)ccc1O", "FALSE"),
]

Ask: Per the records of this test, what outcome belongs to NCCCCC(=O)O ?
Reply: FALSE

---

Experiment: Quantitative high throughput screen for delayed death inhibitors of the malarial parasite plastid, 48 hour incubation (AID 488752); also: nearly all actives have a fitted effect of over 65% in size
Settings: Plasmodium falciparum growth; series mostly up to 28.7 µM
Text: NIH Molecular Libraries Probe Production Network [MLPCN] NIH Chemical Genomics Center [NCGC] Assay Provider: David Fidock and Eric Ekland, Columbia University […] We have developed a cell-based assay that measures parasite growth based on the expression of an integrated copy of a firefly luciferase reporter. […] Growth inhibition is detected by a decrease in luciferase activity […]
Records with an inconclusive call do not appear. Activity calls are given as the source filed them. The call rests on the fitted dose curve; in most records, active means well fitted inhibition curve with a large enough effect; inconclusive means small, poorly fitted or top-dose-only effect, or effect the other way; inactive means flat fitted curve, though single readings scatter.
Hi! Could you answer with just one of these? active, inactive

Please review the following examples before continuing.
# COMPOUND, CLASS LABEL
data = [
    ("CN1[C@@H](CC(=O)c2ccccc2)CCC[C@H]1C[C@H](O)c1ccccc1", "inactive"),
    ("CC(C)Cc1ccc([C@H](C)C(=O)O)cc1", "inactive"),
    ("CC(C)NC[C@H](O)COc1cccc2[nH]ccc12", "inactive"),
    ("NCCSSCCN", "inactive"),
    ("O=S(=O)(c1cccc2c(I)cccc12)N1CCCNCC1", "inactive"),
]

Ask: Field: outcome | Entry: OCC1O[C@H](O)C(Cl)C(O)C1O (some centres undefined)
Reply: inactive

Ask: Short answer needed: outcome of this test for NCCCS(=O)(=O)O ?
Reply: inactive

Ask: How did this test come out for O=C1NC(O)=NC1(c1ccccc1)c1ccccc1 ?
Reply: inactive

Ask: Field: outcome | Entry: Cn1c(=O)c2[nH]c(-c3ccccc3)nc2n(C)c1=O
Reply: inactive

Ask: Dear all, I need the recorded test outcome for CCCN(CC1CC1)c1nc(C)nc(Nc2c(Cl)cc(Cl)cc2Cl)c1Cl , thank you.
Reply: active

Ask: Per the assay record, what outcome was assigned to COc1ccccc1CNCCCCCCNCCCCCCCCNCCCCCCNCc1ccccc1OC ?
Reply: active

Ask: Short answer needed: outcome of this test for O=C(O)CCCC[C@@H]1CCSS1 ?
Reply: inactive

Ask: # lookup: test call for CCCCCCCCCCCCCCCCCC(=O)NCC(COP(=O)([O-])OCC[N+](C)(C)C)OCC (centres undefined)
Reply: inactive

Ask: Lab log entry: O=C1O/C(=C/Br)CCC1c1cccc2ccccc12 (centres undefined) — outcome as called in the assay?
Reply: inactive

Ask: Would you mind telling me which call this test gave c1ccc(-c2ccccn2)nc1 ?
Reply: inactive

Ask: Which outcome was assigned to CN(C)C(N)=NCCC[C@H](N)C(=O)O in this test?
Reply: inactive

Ask: What was the test verdict on C[N+](C)(CCCCCC[N+](C)(C)CCCN1C(=O)c2cccc3cccc(c23)C1=O)CCCN1C(=O)c2cccc3cccc(c23)C1=O ?
Reply: active

Ask: For N[C@@H](CC(=O)O)C(=O)O , what call appears in the results of this test?
Reply: inactive

Ask: Kindly provide the recorded test outcome for the following compound: O=C(Nc1cccc(C(=O)Nc2ccc(S(=O)(=O)O)c3cc(S(=O)(=O)O)cc(S(=O)(=O)O)c23)c1)Nc1cccc(C(=O)Nc2ccc(S(=O)(=O)O)c3cc(S(=O)(=O)O)cc(S(=O)(=O)O)c23)c1
Reply: inactive

Ask: Assay outcome for O=Nc1ccc2oc(=O)ccc2c1 : what was it?
Reply: inactive

Ask: What classification did Cc1ccccc1CNc1ncnc2c1ncn2C1OC(CO)C(O)C1O (centres undefined) end up with in this test?
Reply: inactive

Ask: Answer briefly: the call reported for O=c1[nH]c2ccccc2n1CCCN1CCN(C(c2ccccc2)c2ccccc2)CC1 in this assay.
Reply: inactive

Ask: Recorded test call requested for CN1C2CCC1CC(OC(=O)C(O)c1ccccc1)C2 (centres undefined)
Reply: inactive

Ask: Tell me the recorded outcome of this test for CC(=O)SCC[N+](C)(C)C .
Reply: inactive
